# Target desc: T1, PDZD7_3, Q9H5P4
# T1 sequence (Q9H5P4 857-944, limits assumed, looked up): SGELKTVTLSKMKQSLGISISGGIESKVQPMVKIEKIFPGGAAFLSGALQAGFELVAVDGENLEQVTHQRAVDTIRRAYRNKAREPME
# Measurement protocol: holdup assay
# Parameters: key: below the threshold = too weak to quantify, mostly under pKd 3.1 to 4
# Experimental parameters: plain residues with an end cap or a label only (N-terminal biotin on a linker: ado-ado)
Exercise: state measured pKd for each of the binders provided.
Give bare numbers.

Below are worked cases with known answers.
| Binder | pKd |
| --- | --- |
| QSGLYESEEL [MYOT, Q9UBF9] | 3.63 |
| RQKEVRESKC [SCN8A, Q9UQD0] | 3.85 |
| DPAESMESLV [PTPRG, P23470] | 4.54 |
| KSRVAFFEEL [NF2, P35240;P35240-1] | 4.12 |
| GIKKITSTAL [RPS6KA3, P51812] | 4.92 |
| SRSVVESDEL [MYPN, Q86TC9] | 3.75 |

Here's the next entry for you.
For reference, reported pKd for KKMLQRRTLL [OR8G1, Q15617] stands at 4.61
